test.description: Microsomal stability assay (mouse)
reported.conditions: mouse, liver microsomes
Exercise: for every item that follows, state its recorded microsomal CLint.
// return numeric value only (unit: µL/min/mg, not printed)

For record C/C1=C\CC[C@@]2(C)O[C@@H]2[C@H]2OC(=O)[C@@H](CN[C@@H](Cc3ccccc3)C(=O)O)[C@@H]2CC1 the listed microsomal CLint is 9

The molecule listed as C/C1=C\CC[C@@]2(C)O[C@@H]2[C@H]2OC(=O)[C@@H](CN3CCC(c4cc(O)nc(C)n4)CC3)[C@@H]2CC1 has a reported microsomal CLint of 18

---

Task for the reader: assign each of the following compounds its reported Mouse PK (PO) UC (0-inf).
test.description: Murine oral (PO) PK study
Format: in vivo
reported.conditions: PO 10 mg kg^–1
Lab book: enter the figure in ng h mL^–1, no units written.

The value of Mouse PK (PO) UC (0-inf) measured for the compound C/C1=C\CC[C@@]2(C)O[C@@H]2[C@H]2OC(=O)[C@@H](CN3CCCC3)[C@@H]2CC1 [C00011] turned out to be 711

Value of measured Mouse PK (PO) UC (0-inf) for the entry C/C1=C\CC[C@@]2(C)O[C@@H]2[C@H]2OC(=O)[C@@H](CN3CCC(c4cc(O)nc(C)n4)CC3)[C@@H]2CC1 [Compound 5f] : 1696

In plain terms, C/C1=C\CC[C@@]2(C)O[C@@H]2[C@H]2OC(=O)[C@@H](CN3CCC(c4cc(O)nc(C)n4)CC3)[C@@H]2CC1 [C00012] has a documented Mouse PK (PO) UC (0-inf) of 1696

What the record says about CC1=CCCC2(C)OC2C2OC(=O)C(CN3CCCC3)C2CC1 (stereo not shown) [Compound 5a] : Mouse PK (PO) UC (0-inf) is 711
